METHOD_NOTES: protein stability index of a GFP-peptide fusion (GPS, HEK-293T) (PSI 1-6); higher = more stable;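 also: 24-mer peptide tiles fused after GFP, lentivirally expressed, FACS-sorted into six equal bins by GFP/DsRed ratio, decoded by Illumina sequencing, PSI is the read-weighted mean bin number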
RUN_CONDITIONS: treatment: MLN4924 1 uM, 8 h; c terminus: a fixed tail appended
Response key: Fulfilled means protein stability index >= 4; Not fulfilled means protein stability index < 4.

For orientation, consider the following solved cases.
>>> print(df.to_string())
                           residues    group_label
0  FSLEQQLDDEDDDEEDCPNPEEYN [SRPK2]      Fulfilled
1   NCKRERDARVKRKLRGPEPAATEA [TBX6]      Fulfilled
2    KQPDLTMVRKIGCYAAMKKKIYAM [GAN]  Not fulfilled
3    VSDPQHAARLLRALSSFREESRFC [GAN]  Not fulfilled
4  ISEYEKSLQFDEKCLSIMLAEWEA [RPAIN]  Not fulfilled
5   RDQHPQPSLGDSLESIPSLSQSPE [RTN2]      Fulfilled

In: Given the entry KQDSYEQGDSSQQSLKGHLRNNFQ [ZC2HC1C] , answer whether its protein stability index meets or surpasses 4.
Out: Fulfilled

In: Could you tell me if the measured protein stability index of VVIRDIDERAMELLIDFAYTSQIT [KLHL20] reaches 4 or more?
Out: Not fulfilled

In: Could you tell me if the measured protein stability index of HLEGYHGTAGDSMSYHSGSVFSAR [TNXB] reaches 4 or more?
Out: Not fulfilled
